Target: Ba/F3-Syk cells (Homo sapiens)
Construct: fused on or other part: Possible but unprinted fusion partner: TEL (ETV6), the usual partner for Ba/F3 lines transformed by Syk; Nothing on a partner is printed
Assay: Ba/F3 Proliferation Assay, Ba/F3-Syk cells (Resazurin)
Details: 48-hour incubation
pEC50: −log10 of the molar value.
property.name: pEC50

Would you please look over these solved cases?
{"columns": ["compound", "pEC50"],
 "data": [
  ["CC1(C)CNC[C@@H](COc2cc(-c3cnn(C(F)F)c3)cc3ncccc23)O1", 6.79],
  ["CC(C)n1ccc(-c2cc(O[C@H](C)[C@@H]3CNCCO3)c3nccnc3c2)c1", 8.14],
  ["c1cnc2cc(-c3cn[nH]c3)nc(OC[C@@H]3CNCCO3)c2c1", 6.36],
  ["F/C=C\\n1cc(-c2cc3ncccc3c(OC[C@@H]3CNCCO3)n2)cn1", 6.95],
  ["Cc1ccnc2cc(-c3ccn(C4COC4)c3)cc(OC[C@@H]3CNCC(C)(C)O3)c12", 8.26]
]}

P: CC(C)n1cc(-c2cc3ncccc3c(OC[C@@H]3CNCC(C)(C)O3)n2)cn1
Q: CC(C)n1cc(-c2cc(OC[C@@H]3CNCC4(CCC4)O3)c3cccnc3c2)cn1
R: Cc1cc(-c2cc3ncccc3c(OC[C@@H]3CNCCO3)n2)cs1
Order the records so the highest pEC50 appears first and the lowest last. Return value: ordered labels per request.
Q, P, R

A: CC1(C)CNC[C@@H](COc2nc(-c3ccn(C(C)(C)C)c3)cc3ncccc23)O1
B: CC[C@H](C)n1cc(-c2cc3ncccc3c(OC[C@@H]3CNCCO3)n2)cn1
C: CCn1ccc(-c2cc(OC[C@@H]3CNCCO3)c3cccnc3c2)c1
D: CC1(C)CNC[C@@H](COc2cc(-c3ccn(CC(F)F)c3)cc3nccnc23)O1
Order the records so the highest pEC50 appears first and the lowest last. Return value: ordered labels per request.
D, A, C, B

A: c1cnc2cc(-c3ccn(C4COC4)c3)nc(OC[C@@H]3CNCCO3)c2c1
B: Cn1ccc(-c2cc3ncccc3c(OC[C@@H]3CNCCCO3)n2)c1
C: CC1(C)CNC[C@@H](COc2cc(-c3ccn(C4COC4)c3)cc3ncccc23)O1
D: COCn1cc(-c2cc3ncccc3c(OC[C@@H]3CNCCO3)n2)cn1
Order the records so the highest pEC50 appears first and the lowest last. Return value: ordered labels per request.
C, A, B, D
